Biological target: T1, IL-18 binding protein (IL-18BP) (UniProt O95998 31-194)
T1 sequence (looked up): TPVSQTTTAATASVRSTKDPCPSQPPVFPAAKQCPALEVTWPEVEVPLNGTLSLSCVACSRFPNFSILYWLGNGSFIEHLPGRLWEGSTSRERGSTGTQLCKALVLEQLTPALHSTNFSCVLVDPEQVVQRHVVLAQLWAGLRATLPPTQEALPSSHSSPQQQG
Test: cell-based or functional assay
Everything with Activity, +100 nM BP, DF-1000002 lower than 0.3 is not fulfilled; everything else, including exactly 0.3, is fulfilled.

Binder	Label Class
IL-18 variant G3S, E6G, D54V, S55K, T63S, N91Y, R104T (ligand) YFSKLGSKLSVIRNLNDQVLFIDQGNRPLFEDMTDSDMRDNAPRTIFIISMYKVKQPRGMAVSISVKSEKISTLSSENKIISFKEMNPPDYIKDTKSDIIFFQTSVPGHDNKMQFESSSYEGYFLASEKERDLFKLILKKEDELGDRSIMFTVQNED	fulfilled

Dear colleague, could you confirm whether IL-18 variant G3Q, E6G, D54N, S55H, T63V, N91M, R104T (ligand) YFQKLGSKLSVIRNLNDQVLFIDQGNRPLFEDMTDSDMRDNAPRTIFIISMYKNHQPRGMAVVISVKSEKISTLSSENKIISFKEMNPPDMIKDTKSDIIFFQTSVPGHDNKMQFESSSYEGYFLASEKERDLFKLILKKEDELGDRSIMFTVQNED has Activity, +100 nM BP, DF-1000002 at or above 0.3?
fulfilled

Dear colleague, could you confirm whether IL-18 variant G3P, E6K, K53T, D54Y, S55V, T63I, N91I (ligand) YFPKLKSKLSVIRNLNDQVLFIDQGNRPLFEDMTDSDMRDNAPRTIFIISMYTYVQPRGMAVIISVKSEKISTLSSENKIISFKEMNPPDIIKDTKSDIIFFQRSVPGHDNKMQFESSSYEGYFLASEKERDLFKLILKKEDELGDRSIMFTVQNED has Activity, +100 nM BP, DF-1000002 at or above 0.3?
fulfilled

Dear colleague, could you confirm whether IL-18 variant G3P, E6K, D54Y, S55P, T63S, N91S, R104Q (ligand) YFPKLKSKLSVIRNLNDQVLFIDQGNRPLFEDMTDSDMRDNAPRTIFIISMYKYPQPRGMAVSISVKSEKISTLSSENKIISFKEMNPPDSIKDTKSDIIFFQQSVPGHDNKMQFESSSYEGYFLASEKERDLFKLILKKEDELGDRSIMFTVQNED has Activity, +100 nM BP, DF-1000002 at or above 0.3?
fulfilled

Dear colleague, could you confirm whether IL-18 variant G3Q, E6H, S7Y, D23A, R27S, D54S, S55R, T63F, N91F, R104Q (ligand) YFQKLHYKLSVIRNLNDQVLFIAQGNSPLFEDMTDSDMRDNAPRTIFIISMYKSRQPRGMAVFISVKSEKISTLSSENKIISFKEMNPPDFIKDTKSDIIFFQQSVPGHDNKMQFESSSYEGYFLASEKERDLFKLILKKEDELGDRSIMFTVQNED has Activity, +100 nM BP, DF-1000002 at or above 0.3?
not fulfilled

Dear colleague, could you confirm whether IL-18 variant G3L, E6S, D54T, T63S, N91Y, R104Q (ligand) YFLKLSSKLSVIRNLNDQVLFIDQGNRPLFEDMTDSDMRDNAPRTIFIISMYKTSQPRGMAVSISVKSEKISTLSSENKIISFKEMNPPDYIKDTKSDIIFFQQSVPGHDNKMQFESSSYEGYFLASEKERDLFKLILKKEDELGDRSIMFTVQNED has Activity, +100 nM BP, DF-1000002 at or above 0.3?
fulfilled

Dear colleague, could you confirm whether IL-18 variant G3P, E6D, K53T, D54N, T63A, N91T, R104P (ligand) YFPKLDSKLSVIRNLNDQVLFIDQGNRPLFEDMTDSDMRDNAPRTIFIISMYTNSQPRGMAVAISVKSEKISTLSSENKIISFKEMNPPDTIKDTKSDIIFFQPSVPGHDNKMQFESSSYEGYFLASEKERDLFKLILKKEDELGDRSIMFTVQNED has Activity, +100 nM BP, DF-1000002 at or above 0.3?
not fulfilled

Attribution: patent US20240182536A1
